Test system: Rattus norvegicus
Experiment: Compound was tested for its antihypertensive activity after oral administration to renal hypertensive rats
Type: functional
The entries below are paired with their reported ED30.
Readout Name: ED30 (mg/kg)

CCCCc1nc(Cl)c(CO)n1Cc1ccc(-c2ccccc2-c2nnn[n-]2)cc1.[K+] = 0.59
CCCCN(Cc1nc(CCC)n(Cc2ccc(-c3ccccc3S(=O)(=O)NC(=O)CCC)cc2)c1C(=O)O)C(=O)CCC = 1.65
CCCCN(Cc1ccccc1)Cc1nc(CCC)n(Cc2ccc(-c3ccccc3-c3nnn[nH]3)cc2)c1C(=O)O = 3

====

Molecular target: UniProt:P30556
Sequence (P30556 whole entry): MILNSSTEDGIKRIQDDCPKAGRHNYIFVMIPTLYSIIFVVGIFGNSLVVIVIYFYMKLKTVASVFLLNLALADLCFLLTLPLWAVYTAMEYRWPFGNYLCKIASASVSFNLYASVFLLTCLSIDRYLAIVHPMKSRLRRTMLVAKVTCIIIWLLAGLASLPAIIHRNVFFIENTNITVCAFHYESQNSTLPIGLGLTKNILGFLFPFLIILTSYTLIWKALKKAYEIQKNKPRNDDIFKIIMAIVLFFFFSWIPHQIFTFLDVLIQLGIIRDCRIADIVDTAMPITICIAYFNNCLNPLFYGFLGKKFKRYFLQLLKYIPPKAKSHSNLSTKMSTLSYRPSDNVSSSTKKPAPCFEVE
pIC50: −log10 of the molar value.
The entries below are paired with their reported pIC50.
Readout Name: pIC50

CCCc1nc(CN2CCN(c3ccccn3)CC2)c(C(=O)O)n1Cc1ccc(-c2ccccc2S(=O)(=O)NC(=O)C2CC2)cc1 = 8.00
CCCCN(Cc1nc(CCC)n(Cc2ccc(-c3ccccc3S(=O)(=O)NC(=O)CCC)cc2)c1C(=O)O)C(=O)CCC = 8.70
CCCc1nc(CNC(=O)OC(C)(C)C)c(C(=O)O)n1Cc1ccc(-c2ccccc2-c2nn[nH]n2)cc1 = 8.22
CCc1nc(CN2CCN(c3ccccn3)CC2)c(C(=O)O)n1Cc1ccc(-c2ccccc2-c2nnn[nH]2)cc1 = 7.70
CCCCc1nc(CN2CCN(c3ccccn3)CC2)c(C(=O)O)n1Cc1ccc(-c2ccccc2-c2nn[nH]n2)cc1 = 8.70
CCCc1nc(CN2CCN(c3ccccn3)CC2)c(C(=O)O)n1Cc1ccc(-c2ccccc2S(=O)(=O)NC(=O)c2ccccc2)cc1 = 8.22
CCCc1nc(CN2CCN(C(=O)C(c3ccccc3)c3ccccc3)CC2)c(C(=O)O)n1Cc1ccc(-c2ccccc2-c2nn[nH]n2)cc1 = 8.00
